In this section, each of the molecules is paired with its reported pIC50.
Target: Proteinase-activated receptor 4 (Homo sapiens, UniProt Q96RI0)
Sequence (Q96RI0 whole entry): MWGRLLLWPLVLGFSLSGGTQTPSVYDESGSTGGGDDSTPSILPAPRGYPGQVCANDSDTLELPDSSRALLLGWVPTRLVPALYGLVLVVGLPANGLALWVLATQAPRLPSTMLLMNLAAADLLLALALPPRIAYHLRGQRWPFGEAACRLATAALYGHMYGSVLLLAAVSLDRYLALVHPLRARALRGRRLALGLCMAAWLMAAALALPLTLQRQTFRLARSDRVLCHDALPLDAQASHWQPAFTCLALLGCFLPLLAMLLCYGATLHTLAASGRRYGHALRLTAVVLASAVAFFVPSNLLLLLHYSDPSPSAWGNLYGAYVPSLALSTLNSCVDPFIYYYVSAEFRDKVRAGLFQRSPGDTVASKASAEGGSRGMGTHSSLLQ
Assay: FLIPR Assay in PAR4-Expressing HEK293 Cells: FLIPR-based calcium mobilization assay in HEK293 cells was used to measure PAR4 antagonism agonism, and selectivity against PAR1. The activity of the PAR4 antagonists of the present invention were tested in PAR4 expressing cells by monitoring H-Ala-Phe(4-F)-[…]NH2-induced intracellular calcium mobilization. Counter screens for agonist activity and PAR1 antagonist activity were also performed. Briefly, PAR/PAR4-expressing HEK293 cells were grown in DMEM (Life Technology, Grand Island, N.Y.) containing 10% heat-inactivated FBS, 1% Penicillin-Streptomycin, 10 μg/mL blasticidin, and 100 μg/mL Zeocin at 37° C. with 5% CO2. Cells were plated overnight prior to the experiment in a black 384-well Purecoat Amine clear bottom plate (Becton Dickinson Biosciences, San Jose, Calif.) at 10,000 cells/well in 30 μL growth medium and incubated in a humidified chamber at 37° C. with 5% CO2 overnight. Prior to compound addition, the cell medium was replaced with 40 μL of 1× calcium and magnesium-containing Hank's Balanced Saline Solution (HBSS) (with 20 mM HEPES) and 1:1000 diluted fluorescent calcium indicator (Codex Biosolutions, Gaithersburg, Md.). After a 30 minute incubation period at 37° C. and a further 30 minute incubation and equilibration period at room temperature, 20 μL test compound (diluted in 1×HBSS buffer) was added at various concentrations at 0.17% dimethyl sulfoxide (DMSO) final concentration. Changes in fluorescence intensity were measured using a Functional Drug Screening System (FDSS, Hamamatsu, Japan) to determine agonist activities. The cells were then incubated for 30 minutes at room temperature followed by addition of 20 μL of agonist peptide for antagonist activity measurement. […] Compound potency was derived from 11-point concentration-response curves.
API: returns pIC50 as number; meaning -log10 of concentration in mol/L.

INSERT INTO measurements (molecule, experimental_readout, test_value) VALUES
  ('COc1cnc2c(-c3nc4cc(F)c(O[C@@H]5CC(F)(F)C[C@@H]5OC(=O)Nc5cnc(OCCO)nc5)cc4s3)cc(C)cc2c1 (relative stereo)', 'pIC50', 7.70);

Memo: COc1ccc(NC(=O)O[C@H]2CCNC[C@H]2Oc2cc3sc(-c4cc(C)cc5nc(OC)cnc45)nc3cc2F)cn1 (racemic) , reported pIC50: 6.01

All figures here come from ChEMBL document CHEMBL5727860.
